System: A498 renal
test.summary: NCI tumour cell line growth inhibition, 48 h; in the data active = GI50 below about 0.43 µM; inactive = the rest
Classes to choose from: active, inactive

{"molecule": "C/C(=C\\CCc1ccoc1)CC/C=C(\\C)CCCC1=CC(=O)OC1", "class": "inactive"}

Record request — test call for Cc1ccc(C(SCC(N)C(=O)O)(c2ccccc2)c2ccc(C)cc2)cc1 (stereo not given)
active

What do you have for `Cn1c(=O)c2c(nc(Nc3cc(=O)[nH]c(=O)[nH]3)n2Cc2ccccc2)n(C)c1=O` ?
inactive

Could you do the same for COc1ccc2c(c1)C(C)Cc1c(Cl)ncnc1N2C (stereo not given) , please?
active

Same thing, different molecule: `CCN1CCN(c2ccc(Nc3cc(N(C)C(=O)Nc4c(Cl)c(OC)cc(OC)c4Cl)ncn3)cc2)CC1`
active

Follow-up entry: `Ic1ccc(Nc2nc3nonc3nc2Nc2ccc(I)cc2)cc1`
active

###

System: SN12C renal
test.summary: NCI tumour cell line growth inhibition, 48 h
Assign TGI to each entry below.
One number for each entry, in µM.

Recorded results for 4 compounds are shown here.
{"compound": "CC(=O)Nc1cc(C(=O)Nc2cc(C(=O)N3CC(CCl)c4c3cc(N)c3ccccc43)nn2C)nn1C (stereo not given)", "endpoint.result": 0.0102}
{"compound": "Oc1ccc(Cl)cc1Cc1cc(Cl)cc(Cl)c1O", "endpoint.result": 21.8}
{"compound": "C=CC(Br)(CBr)CCC(Cl)C(C)C (stereo not given)", "endpoint.result": 3.19}
{"compound": "NCCCNc1nc2ccccc2c2c(=O)c3cc(OC(F)(F)F)ccc3sc12", "endpoint.result": 3.14}

Field: next compound
What measured TGI is associated with CCOC(=O)Oc1c(OC)cc(C(=O)NC2CCc3cc(OC)c(OC)c(OC)c3-c3ccc(SC)c(=O)cc32)cc1OC (stereo not given) on SN12C renal?
25.2

###

System: PC-3 prostate
test.summary: NCI tumour cell line growth inhibition, 48 h; in the data active means GI50 below about 0.43 µM; inactive means the rest
API: response.call in T for active, F for inactive

{"molecule": "CC(C)=C[C@@H]1C[C@H](C)[C@H]2CC[C@H](C)C3=C2[C@](O)(OC3=O)[C@]1(C)O", "class": "F"}

Next up:
Please let me know the test result on file for `CC/C(=C(/c1ccc(OCCN(C)C)cc1)c1ccc(OC(=O)CCCCC(=O)c2c(C)[nH]c(/C=C3\N=C(c4ccc[nH]4)C=C3OC)c2C)cc1)c1ccccc1` .
F

###

System: NCI-H226 lung
test.summary: NCI tumour cell line growth inhibition, 48 h
assay.endpoint: TGI

Example results:
{"compound": "CC(C)(C)c1cc(C(P(=O)(c2ccccc2)c2ccccc2)P(=O)(c2ccccc2)c2ccccc2)cc(C(C)(C)C)c1O", "TGI": "9.13 µM"}
{"compound": "CNCCNc1c2c(c(NCCNC)c3c(CN(C)C)c[nH]c13)C(=O)c1ccccc1C2=O", "TGI": "24.2 µM"}
{"compound": "COC(=O)C1=C(C)N(NC(=O)c2ccccc2)C(C)(O)C12CCOC2=O (configuration not stated)", "TGI": "> 100 µM"}
{"compound": "COc1ccc(C(=O)c2cc(OC)c(C)c(OC)c2)cc1OC(=O)CCl", "TGI": "> 30.6 µM"}
{"compound": "COc1ccccc1C1C(C(=O)O)=C(CO)Oc2cc3c(cc21)OCO3 (configuration not stated)", "TGI": "> 100 µM"}
{"compound": "CCCCCCCCCC/C=C/CC(=O)SCCNC(=O)CCNC(=O)[C@@H](O)C(C)(C)COP(=O)(O)OP(=O)(O)OCC1OC(n2cnc3c(N)ncnc32)C(O)C1OP(=O)(O)O (some centres not stated)", "TGI": "> 10 µM"}
{"compound": "O=C(O)c1n[nH]nc1Cl", "TGI": "> 100 µM"}
{"compound": "COc1cc(/C=C2\\CCC(C)C3C2=NN(C(C)=O)C3c2cc(OC)c(OC)c(OC)c2)cc(OC)c1OC (configuration not stated)", "TGI": "> 100 µM"}

Would you mind listing TGI for each of the following compounds?
1. O=[N+]([O-])c1ccc(Cl)c(C=NC23CC4CC(CC(C4)C2)C3)c1
2. COc1ccc2c(c1)CCC1C2CC[C@@]2(C)C1CC1=CC(COC(C)=O)C3C(=O)c4ccccc4C(=O)C3C12 (some centres not stated)
3. CCN(CC)CCOc1ccc(/C=C(\C#N)c2ccc(OCCN(CC)CC)cc2)cc1
4. O=Cc1ccc2c(c1)CC1(C2)Cc2ccc3c(c2C1)CCC3 (configuration not stated)
5. COc1nc(C(=O)NNC(=O)c2nc(OC)c3ccccc3c2-c2ccccc2)c(-c2ccccc2)c2ccccc12
6. c1ccc2sc(C3(N4CCCC4)CCCCCC3)cc2c1
7. O=C(O)/C=N\Nc1nc2ccccc2[nH]1
8. C=C(C)[C@@]12OC3(/C=C/C=C/CCCCC)O[C@@H]1[C@@H]1[C@@H]4O[C@]4(CO)[C@@H](O)[C@]4(O)C(=O)C(C)=C[C@H]4[C@@]1(O3)[C@H](C)[C@H]2OC(=O)c1ccccc1

1. > 10 µM
2. > 100 µM
3. > 78.4 µM
4. 37.8 µM
5. > 100 µM
6. 40.3 µM
7. > 100 µM
8. 3.21 µM

Below are 7 compounds. Give each one its TGI.
1. Cc1cc(C)c(S(=O)(=O)N2CCCN(S(=O)(=O)c3c(C)cc(C)cc3C)OCCCON(S(=O)(=O)c3c(C)cc(C)cc3C)CCCN(S(=O)(=O)c3c(C)cc(C)cc3C)OCCCO2)c(C)c1
2. COc1ccc(C2CC(c3cccc(Nc4ccncc4)c3)=NN2c2cc(Cl)cc(Cl)c2)cc1 (configuration not stated)
3. CC(C)(C)[SiH]12(OC(C(F)(F)F)(C(F)(F)F)c3ccccc31)OC(C(F)(F)F)(C(F)(F)F)c1ccccc12
4. CN(c1ccc(Cl)cc1)S(=O)(=O)c1ccc([N+](=O)[O-])cc1
5. COc1ccc2nc3ccc(OC)cc3c(S(=O)CCCl)c2c1 (configuration not stated)
6. CC1=Nc2ccccc2C1C(Cc1ccccc1N)c1c(C)[nH]c2ccccc12 (configuration not stated)
7. O=S(=O)(Nc1cc(F)cc(Cl)c1)c1ccc(-c2cnc(C3CC3)o2)cc1

["> 100 µM", "30.7 µM", "5.05 µM", "> 100 µM", "33.9 µM", "32.9 µM", "17.9 µM"]

###

Assignment: determine reported GI50 for the given compounds.
System: SNB-75 CNS
test.summary: NCI tumour cell line growth inhibition, 48 h

{"compound": "CCOc1nc(-c2ccccc2)cc2c(O)c(-c3nnco3)[nH]c(=O)c12", "assay.endpoint": "GI50", "endpoint.result": "1920 nM"}
{"compound": "COc1ccc(C(=O)c2cc(OC)c(C)c(OC)c2)cc1OC(=O)CCl", "assay.endpoint": "GI50", "endpoint.result": "154 nM"}

Here are 8 compounds. What values of GI50 were reported for them?
1. O=C(Nc1ccc(OS(=O)(=O)c2ccccc2)cc1)C12CC3CC(CC(C3)C1)C2
2. CCC[CH2][Sn]([CH2]CCC)([CH2]CCC)[O]C(=O)CC
3. C=CC1CC12C(=O)C1OC2(C)C2C(=O)c3cc4ccccc4cc3C(=O)C12 (configuration not stated)
4. Clc1coc2nc3ccccc3c(Nc3ccc4c(c3)OCO4)c12
5. COc1ccc2c(c1)C(C)Cc1c(Cl)ncnc1N2C (configuration not stated)
6. COc1cc(Nc2cn[nH]c2-c2ccc(Cl)cc2)cc(OC)c1OC
7. C=C(C=O)C1CCC2(C(=O)O)CCC3(C)C(CCC4C5(C)CCC(O)C(C)(C)C5CCC43C)C12 (configuration not stated)
8. O=S(=O)([O-])c1ccc2c(c1)-c1nc-2nc2[n-]c(nc3nc(nc4[n-]c(n1)c1ccc(S(=O)(=O)[O-])cc41)-c1cc(S(=O)(=O)[O-])ccc1-3)c1ccc(S(=O)(=O)[O-])cc21.[Cu+2].[Na+]

1: 7160 nM; 2: 144 nM; 3: 35500 nM; 4: 4360 nM; 5: 557 nM; 6: 1140 nM; 7: 10800 nM; 8: > 67300 nM

// input: 4 compounds below; output: GI50 for each
1. CCOC(=O)Oc1c(OC)cc(C(=O)NC2CCc3cc(OC)c(OC)c(OC)c3-c3ccc(SC)c(=O)cc32)cc1OC (configuration not stated)
2. Cn1cc(C2=C(c3ccc4ccccc4c3)C(=O)NC2=O)c2ccccc21
3. COc1cc(C(=O)c2cc(C)c3[nH]c4ccc(Cl)cc4c3c2C)cc(OC)c1OC
4. Oc1ccc(Cl)cc1Cc1cc(Cl)cc(Cl)c1O

1: < 7 nM; 2: 7470 nM; 3: 25.4 nM; 4: 5140 nM

List the reported GI50 of each compound below.
1. COc1ccc2c(c1)CCC1C2CC[C@@]2(C)C1CC1=CC(COC(C)=O)C3C(=O)c4ccccc4C(=O)C3C12 (some centres not stated)
2. C=C(F)C(=O)N1CCN(c2nc(OC[C@@H]3CCCN3C)nc3c2CCN(c2cccc4cccc(Cl)c24)C3)C[C@@H]1CC#N
3. O=C(OCc1ccc2cccc(O)c2n1)N1CCN(C(=O)c2cc3cc(F)ccc3[nH]2)CC1
4. O=[N+]([O-])c1ccc(C=C2C(Cl)=C(Cl)C(Cl)=C2Cl)cc1
5. Cc1nc(N)sc1-c1ccnc(Nc2ccc(N3CCOCC3)cc2)n1
6. O=S(=O)(Nc1cc(F)cc(Cl)c1)c1ccc(-c2cnc(C3CC3)o2)cc1
7. COc1ccc(C2CC(c3cccc(Nc4ccncc4)c3)=NN2c2cc(Cl)cc(Cl)c2)cc1 (configuration not stated)
8. CC(=O)OC1Oc2ccccc2-c2oc(=O)c(-c3cc(=O)oc4cc(O)ccc34)cc21 (configuration not stated)

1: 36300 nM; 2: 1170 nM; 3: 1020 nM; 4: 2050 nM; 5: 1380 nM; 6: 344 nM; 7: 2090 nM; 8: 22300 nM
